Attribution: PubChem BioAssay AID1851

Target: Cytochrome P450 3A4 (Homo sapiens) (UniProt P08684)
Sequence (P08684 whole entry, looked up): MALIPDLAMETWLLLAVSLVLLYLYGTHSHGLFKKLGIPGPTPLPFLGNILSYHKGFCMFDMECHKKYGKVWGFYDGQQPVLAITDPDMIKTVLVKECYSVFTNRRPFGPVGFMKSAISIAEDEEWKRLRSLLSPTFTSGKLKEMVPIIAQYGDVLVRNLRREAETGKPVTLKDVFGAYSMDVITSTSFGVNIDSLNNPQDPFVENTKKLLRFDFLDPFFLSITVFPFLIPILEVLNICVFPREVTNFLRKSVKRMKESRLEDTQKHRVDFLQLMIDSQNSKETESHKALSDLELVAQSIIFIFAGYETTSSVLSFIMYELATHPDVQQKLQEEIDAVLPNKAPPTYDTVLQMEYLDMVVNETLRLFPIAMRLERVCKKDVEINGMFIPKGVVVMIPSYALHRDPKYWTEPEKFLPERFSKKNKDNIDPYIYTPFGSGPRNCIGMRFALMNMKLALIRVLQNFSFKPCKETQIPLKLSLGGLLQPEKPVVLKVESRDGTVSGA
Assay: Cytochrome panel assay with activity outcomes
Conditions: recombinant CYP, pro-luciferin dealkylation, luminescence, p450-cyp3a4; series mostly up to 57.1 µM
Method: The P450 gene superfamily is involved in the metabolism and clearance of xenobiotics. This assay used various human CYP P450 isozymes to measure the dealkylation of various pro-luciferin substrates to luciferin. The luciferin is then measured by luminescence after the addition of a luciferase detection reagent. […] Inhibitors and some substrates limit the production of luciferin, and decrease measured luminescence. […] 8, Detection, 1 sec, ViewLux luminescent read […]
About 5,100 (32%) of roughly 16,000 compounds were called active. About 25% were inconclusive and are not listed. Calls follow the shape of the dose curve; as a rule, active = well fitted curve in the direction sought with a large enough effect; inconclusive = small, poorly fitted or top-dose-only effect, or effect the other way; inactive = no such curve, though single readings can be large or run the other way. This is one part of the list.
Valid outcomes are listed here; reply with one: Y = active, N = inactive

Per the records of this test, what outcome belongs to "CCCCCCCCCCCCCCCCCCOC[C@@H](COP(=O)([O-])OCC[N+](C)(C)C)OC" ? N

Recorded test call requested for "COc1ccc(O[C@H]2C=C[C@@H](c3ccccc3)O[C@H]2COC(=O)CC/C(C)=N\O[C@@H](C)CN2CCCCc3nc(C)c(C)cc32)cc1" Y

Which outcome was entered for the compound "O=C(CO)N/N=C/c1ccccc1F" in this test? N

I'd appreciate the recorded outcome for "CCC(=O)Nc1ccccc1C(=O)OCC(=O)c1ccccc1" from this test. N

Just curious, what result did "CCOC(=O)N/N=C/c1ccccc1F" get here? N

Record request — test call for "CCCCCCCCCCCCCCCCCCNC(=O)OC[C@@H](COP(=O)([O-])OCC[n+]1ccsc1)OC" N

Just curious, what result did "CCCCCCCCCCCCCCCCCC(=O)O[C@H](CC(=O)O)C[N+](C)(C)C" get here? N

// outcome(item) with item = "Cc1ccc(NC(=O)c2cc(NC(=O)CCCC(=O)O)ccc2Cl)cc1Cl" N

Which result was noted for this compound in the test: "CCOC(=O)c1ccccc1NC(=O)/C(C)=C/C(=O)O" N

Please share the test call associated with "CCC(=O)Nc1ccccc1C(=O)OCC(=O)c1cccc2ccccc12" . Y

GET /call?item= "CCCCCCCCCCCCCCCC(=O)NC[C@@H](COP(=O)([O-])OCC[N+](C)(C)C)OCC" returns the recorded outcome of this test. Y

* * *

target: Cytochrome P450 3A4 (Homo sapiens) (UniProt P08684); experiment: Cytochrome panel assay with activity outcomes; conditions: recombinant CYP, pro-luciferin dealkylation, luminescence, p450-cyp3a4; series mostly up to 57.1 µM; as to activity, negative = inhibition: % is scaled to controls: 0 for no effect and ±100 for the full control effect
Hit rate of the full screen: of about 16,000 compounds, about 5,100 (32%) were called active. Inconclusive results (about 25%) are left out. The list shows a part of the results.
outcome.measure: activity, negative = inhibition

Recorded activity, negative = inhibition (compound Cc1ccc(C(C(=O)NC2CCCCC2)N2CCN(C(=O)c3ccco3)CC2)cc1 (configuration not stated) ): -19.6% [at 2.29 µM] (inactive)

So, "CC(=O)O[C@]12CC[N@+]3(C)CCCC[C@@H]3[C-]1Nc1ccccc12" ? Its activity, negative = inhibition was 0.352% [at 11.4 µM] (inactive)

The compound listed as "CC[C@H](CN(C)C)C(=O)c1ccco1" shows activity, negative = inhibition equal to -7.24% [at 11.4 µM] (inactive)

Entry "N#CC1(Nc2ccc(-c3ccc(NC4(C#N)CCCC4)cc3)cc2)CCCC1" — recorded activity, negative = inhibition = -20.9% [at 11.4 µM] (inactive)

The compound O=S(=O)(CC(O)COc1ccccc1Cl)c1ccccc1 (configuration not stated) showed activity, negative = inhibition equal to -5.32% [at 11.4 µM] (inactive)

For O=C(NC1CCCC1)C(c1ccc(F)cc1)N(Cc1ccc(F)cc1)C(=O)c1ccn[nH]1 (configuration not stated) the compound record lists activity, negative = inhibition as -28.2% [at 2.29 µM] (inactive)

Looking up "O=C(Cc1ccc(Br)cc1)OCC(=O)c1ccc2c(c1)OCCO2" , I see its activity, negative = inhibition listed as -3.84% [at 2.29 µM] (inactive)

In plain terms, "CSCC[C@@H]1NC(=O)C/C=C\[C@@H](C)COC(=O)[C@@H](C)COC1=O" has a documented activity, negative = inhibition of -21.5% [at 11.4 µM] (inactive)

compound "COc1cc(CNC(C)(C)CO)ccc1OCC(=O)Nc1ccc(Br)cc1" , activity, negative = inhibition observed: 0.897% [at 2.29 µM] (inactive)

What the record says about "N#C/C(=C\N1CCNC1=S)C(=O)c1ccc2ccccc2c1" : activity, negative = inhibition is -26% [at 11.4 µM] (inactive)

Item: "CO[C@H]1COC(=O)C/C=C\[C@H](C)COC(=O)[C@@H](C)NC(=O)C/C=C\[C@@H]1C" | activity, negative = inhibition: -29.4% [at 11.4 µM] (inactive)

Per the record, "CCn1c2ccccc2c2nnc(NCCCO)nc21" has activity, negative = inhibition of -11.6% [at 11.4 µM] (inactive)

Field activity, negative = inhibition (entry "Cc1c(Cl)c(S(N)(=O)=O)cc(S(N)(=O)=O)c1NC(=O)c1ccc(Cl)cc1" ) reads 3.55% [at 11.4 µM] (inactive)

Reported activity, negative = inhibition of "O=S(=O)(O)c1ccc(N=Nc2ccc3c(S(=O)(=O)O)cccc3c2O)c2ccccc12" : -9.88% [at 11.4 µM] (inactive)

Value of measured activity, negative = inhibition for the entry "O=S(=O)(O)c1ccc2cc(N=Nc3cc(S(=O)(=O)O)c4cccnc4c3O)ccc2c1" : -6.99% [at 11.4 µM] (inactive)

activity, negative = inhibition for "O=C(N/N=C/c1ccc(O)cc1)c1ccc(COc2cc(Cl)ccc2Cl)o1" is -27.3% [at 2.29 µM] (inactive)

Value of activity, negative = inhibition reported for the compound "C[C@H]1COC(=O)[C@H]2CCCN2C(=O)[C@@H](C)COC(=O)[C@H](Cc2ccccc2)NC1=O" is -25.7% [at 11.4 µM] (inactive)

Value of measured activity, negative = inhibition for the entry "O=C1C2=CC[C@@H]3C(=O)N(c4ccc(F)cc4F)C(=O)[C@H]3[C@H]2[C@H](O)[C@H]2O[C@H]12" : -21.3% [at 11.4 µM] (inactive)

// activity, negative = inhibition value for "Cc1ccc(S(=O)(=O)N(CC(=O)NCCC2=CCCCC2)Cc2ccccc2F)cc1" : -9.36% [at 2.29 µM] (inactive)

Quick note, activity, negative = inhibition for "CC(C)(C)c1ccc(O)c(CN(Cc2cc(C(C)(C)C)ccc2O)C2CCCCC2)c1" landed at -3.22% [at 11.4 µM] (inactive)

The reported activity, negative = inhibition of the compound "COc1nc(OCCNC(C)=O)nc(N(C)C)n1" was 4.84% [at 2.29 µM] (inactive)

"Cc1cc(-c2c(C)[nH]n(-c3ccccc3)c2=O)n(-c2ccccc2)n1" yielded activity, negative = inhibition of -9.49% [at 11.4 µM] (inactive)

Notebook: COc1ccc(CCC(C)NC2C3CC4CC(C3)CC2C4)cc1 (configuration not stated) , activity, negative = inhibition read as -2.79% [at 2.29 µM] (inactive)

Reported activity, negative = inhibition for "CC(C)CO/N=C1/C[C@@H](O)[C@@H](O)[C@@H]2[C@@H]3C(=O)N(C[C@@H]4CCCO4)C(=O)[C@H]3CC[C@@H]12" was -19.4% [at 11.4 µM] (inactive)

Record "CC(C)(S)[C@H](N)C(=O)O" . Reported activity, negative = inhibition: -0.648% [at 11.4 µM] (inactive)

The recorded activity, negative = inhibition for entry "C[C@@H]1/C=C\CC(=O)OC[C@H](C)C(=O)N[C@@H](C)C(=O)OC1" equals -13.1% [at 11.4 µM] (inactive)

Lab book: activity, negative = inhibition of "CSc1ccccc1NC(=O)CSCc1ccc(C)cc1" noted as -20% [at 11.4 µM] (inactive)

Per the record, "C[C@@H]1/C=C\CC(=O)OC[C@H]2O[C@@H](C=C[C@@H]2O)[C@H](C)/C=C\CC(=O)OC[C@H]2O[C@H]1C=C[C@@H]2O" has activity, negative = inhibition of -21.3% [at 11.4 µM] (inactive)

"CN(C)CCOC(=O)c1ccc(N)cc1" has a reported activity, negative = inhibition of -4.56% [at 11.4 µM] (inactive)

# activity, negative = inhibition (compound: "O=C(O)c1cscc1Cc1cccs1" ) is 17.7% [at 11.4 µM] (inactive)

Documented activity, negative = inhibition of "O=C1CN=C(Nc2ccccc2)N1Cc1cccs1" : -6.15% [at 2.29 µM] (inactive)

Please fill in: activity, negative = inhibition reported for "Cc1ccc2nc(SCC(=O)NCc3cccs3)c(C#N)cc2c1" = -9.74% [at 2.29 µM] (inactive)

// activity, negative = inhibition value for "CO[C@@H]1COC(=O)CC=C[C@@H](C)[C@@H]2C=C[C@@H](O)[C@@H](COC(=O)C/C=C\[C@H]1C)O2" : -26.7% [at 11.4 µM] (inactive)

Recorded activity, negative = inhibition (compound "NS(=O)(=O)c1ccc(N=Nc2ccc(O)c(C(=O)O)c2)cc1" ): -11.8% [at 11.4 µM] (inactive)

Reported activity, negative = inhibition ( COC(=O)C1CCC(C)(C(=O)Nc2ccccc2)C1(C)C (configuration not stated) ) = -9.58% [at 11.4 µM] (inactive)

The compound "O=C(O)c1cc(-c2ccc(-c3ccc(-c4cc(C(=O)O)c5cc(Cl)ccc5n4)cc3)cc2)nc2ccc(Cl)cc12" showed activity, negative = inhibition equal to 24.9% [at 11.4 µM] (inactive)

Input "O=C(Nc1ccc(Cl)cc1)NC1CCCCC1" . Output activity, negative = inhibition: 9.33% [at 2.29 µM] (inactive)

For reference, reported activity, negative = inhibition for "CC[C@@]1([N+](=O)[O-])C[C@H]2C=C[C@@H]1C2" stands at -4.49% [at 11.4 µM] (inactive)

Lookup result for "CC(C)NCC[C@@H](O)c1cc2ccccc2o1" ; measured activity, negative = inhibition: -4.13% [at 11.4 µM] (inactive)

The value of activity, negative = inhibition measured for the compound "CC(=O)O[C@H]1CC[C@@]2(C)C(=CC[C@@H]3[C@H]4CC[C@@H]([C@H](C)C(=O)O)[C@]4(C)CC[C@H]32)C1" turned out to be 1.09% [at 11.4 µM] (inactive)

Noted for "O=C(O)CCNc1ccccc1C(=O)O" : its activity, negative = inhibition reads -9.69% [at 11.4 µM] (inactive)

Looking up CCCCN1C(=O)NC(NC(=O)c2ccco2)(C(F)(F)F)C1=O (configuration not stated) , I see its activity, negative = inhibition listed as 2.31% [at 2.29 µM] (inactive)
